The reported numbers originate from paper PMC11672294.

Test system: HT29
Conditions: 72 h, relative to DMSO; 10 µM
Protocol: To investigate the key signaling pathways and biological processes involved in CRC progression, we analyzed the National Center for Biotechnology Information Gene Expression Omnibus (GEO) dataset GSE115313, which included 42 CRC and paired normal tissues (Figure 1A). […] Absorbance at the wavelength of 450 nm was measured using an automated microplate spectrophotometer (BioTek Instruments, Winooski, VT, USA).
Structures can show the parent of a compound that is named as a salt.
Each entry falls into one class according to its Relative cell viability (%); the ranges are lower level (below 70%), middle level (70% to below 90%), upper level (90% or more)

* Cc1c(-c2ccnn2C)cc(C(=O)NCc2ccc(S(C)(=O)=O)cn2)c(=O)n1-c1cccc(C(F)(F)F)c1 | upper level
* CN(C)CCOc1ccc(/C(=C(/CCCl)c2ccccc2)c2ccccc2)cc1 [Toremifene Citrate] | lower level
* O=C(NS(=O)(=O)c1ccc(Br)s1)c1ccc(Cl)cc1Cl | upper level
* CN(Cc1cc(Br)cc(Br)c1N)C1CCCCC1 [Bromhexine HCl] | upper level
* CCc1cccc2c3c([nH]c12)C(CC)(CC(=O)O)OCC3 (stereo not drawn) | middle level
* C=C(c1ccc(C(=O)O)cc1)c1cc2c(cc1C)C(C)(C)CCC2(C)C | upper level
* CCC[S+]([O-])c1ccc2[nH]c(NC(=O)OC)nc2c1 (stereo not drawn) [Albendazole Oxide] | lower level
* CC[C@@H]([C@H](C)O)n1ncn(-c2ccc(N3CCN(c4ccc(OC[C@@H]5CO[C@@](Cn6cncn6)(c6ccc(F)cc6F)C5)cc4)CC3)cc2)c1=O | lower level
* CN(C)CC/C=C1/c2ccccc2Sc2ccc(Cl)cc21 | lower level
* COC(=O)C1=C(C)NC(C)=C(C(=O)O[C@@H]2CCCN(Cc3ccccc3)C2)[C@@H]1c1cccc([N+](=O)[O-])c1 (racemic) [Benidipine HCl] | middle level
* N=C(N)NC(=O)c1nc(Cl)c(N)nc1N [Amiloride HCl] | lower level
* CNC1CCCN(c2c(F)cc3c(=O)c(C(=O)O)cn(C4CC4)c3c2OC)C1 (stereo not drawn) | upper level
* CN(C)C(=O)c1cc2cnc(Nc3ccc(N4CCNCC4)cn3)nc2n1C1CCCC1 | lower level
* C[N+](C)(C)CCO [Choline Chloride] | middle level
* O=C1c2ccccc2C(=O)C1c1ccccc1 | upper level
* COc1ccccc1OCCNCC(O)COc1cccc2[nH]c3ccccc3c12 (stereo not drawn) | lower level
